Where a name gives a salt, the structure may show the parent alone.
recorded endpoint: melting point

# melting point lookup, item COc1ccc(C(=O)N[C@@H](C(=O)N2CCN(CCC3CCCC3)CC2)c2ccccc2)cc1 (as salt: hydrochloride)
190 to 192 °C

Now this one: "Cl.N#Cc1cc(CCN2CCN(C(=O)[C@H](NC(=O)c3ccc4cc[nH]c4c3)c3ccccc3)CC2)ccn1"
156 to 169 °C

Next compound: "Cl.O=C(N[C@@H](C(=O)N1CCN(CCc2nccs2)CC1)c1ccccc1)c1ccc2cc[nH]c2c1"
135 to 142 °C (dec.)

Follow-up entry: O=C(N[C@@H](C(=O)N1CCN(CCc2ccncc2F)CC1)c1ccccc1)c1ccc2cc[nH]c2c1 [Example 58a]
135 to 145 °C (dec.)
